# System: MALME-3M melanoma
# test: NCI tumour cell line growth inhibition, 48 h
Hi there, I'd appreciate the recorded TGI for every entry that follows.

Example entries and their recorded answers appear below.
Tell me its TGI given C=C(C)CC1(O)C(=O)C(OCC)=C1OCC (centres undefined) as the entry. > 100 µM

Write down TGI measured for item `CC1=C(C(=O)Nc2cc(=O)n(C)c(=O)n2C)C(c2ccc([N+](=O)[O-])cc2)C(C(=O)Nc2cc(=O)n(C)c(=O)n2C)=C(C)N1` > 100 µM

Look up and report measured TGI for this entry: `CCN(CC)CCNC(=O)c1ccc(I)cc1` > 100 µM

Indicate its recorded TGI; the compound in question is C/C1=C/C(C)CC(C)OC(=O)C(C)NC(=O)C(Cc2ccc(O)c(I)c2)N(C)C(=O)C(C)NC(=O)C(C)C1 (centres undefined) 3.45 µM

Using the record for O=C(CC1(O)C(=O)Nc2ccccc21)c1ccco1 (centres undefined) , state its measured TGI. > 100 µM

State recorded TGI for all listed compounds.
1. CC(=O)c1ccc2c(ccc(=O)n2C)c1
2. CN1CCN(c2cc(C(=O)Nc3cc4cc(-c5cnn(C)c5)ccc4cn3)ccn2)CC1
3. O=C(Nc1cccc(Cc2cccc(NC(=O)c3ccccc3)c2)c1)c1ccccc1
4. O=C(NNC(c1ccccc1)C(F)(F)F)c1ccncc1 (centres undefined)
5. CCN1C[C@]2(C)CC[C@H](OC)C34C1C([C@H](OC(C)=O)[C@@H]32)[C@@]1(OC)C[C@H](OC)[C@H]2C[C@@H]4[C@@H]1[C@H]2O
6. COc1ccc2c(c1)/C(=C\c1c(C)nc3sc(C)cn13)C(=O)N2
7. CN(C)CCSc1cccc(-c2cc(-c3cccc(SCCN(C)C)c3)nc(SCCN(C)C)n2)c1
8. O=C(O)CNc1ccc(C(=O)O)cc1

["> 100 µM", "0.584 µM", "99.7 µM", "> 100 µM", "> 100 µM", "> 100 µM", "3.38 µM", "> 100 µM"]

Give TGI for each listed item.
1. CCCCCCCC/C=C\CCCCCCCC(=O)O
2. Nc1ccccc1NC(=O)c1ccc(CCCC(=O)Nc2ccc(C3CC3N)cc2)cc1 (centres undefined)
3. O=C(O)c1ccc(S(=O)(=O)Nc2ccc3oc4c(c3c2)C(=O)CCC4)cc1
4. C[C@@H](CN1CC(=O)NC(=O)C1)N1CC(=O)NC(=O)C1
5. COc1cc(/C=C/c2cc(/C=C/c3ccc(O)c(OC)c3)nc(N)n2)ccc1O
6. CCOC(=O)C(C(=O)c1ccccc1C(=O)OC)=P(c1ccccc1)(c1ccccc1)c1ccccc1

1: > 500 µM; 2: 7.2 µM; 3: > 100 µM; 4: 1100 µM; 5: 6.76 µM; 6: > 10 µM

----------
Answer each item with its documented TGI.
# Tested on: HT29 colon
# test: NCI tumour cell line growth inhibition, 48 h

Give the reported TGI for this compound. `COC(=O)c1c(O)c([N+](=O)[O-])cc2c1c1c(n2Cc2ccccc2)C(=O)c2ccccc2C1=O` > 100 µM

Give the reported value of TGI for this record: `CC#C/C(=N\OC[C@H]1COCCN1)c1ccc2ncnc(Nc3ccc(OCc4cccc(F)c4)c(Cl)c3)c2c1` 3.09 µM

Identify measured TGI corresponding to `CS(=O)(=O)Nc1cccc(-c2cc(-c3ccccc3Cl)c(C#N)c(N)n2)c1` 11.9 µM

Give the measured TGI for `CN1CCN(c2ccc(Nc3nc(N)c(C(=O)c4ccc5c(c4)OCCO5)s3)cc2)CC1` 11.7 µM

Give the value of TGI reported for the following: O=C(CC1(O)C(=O)Nc2ccccc21)c1ccco1 (stereo not given) > 100 µM

Please list TGI recorded for the compound `O=[N+]([O-])c1ccc(/C=N/Nc2nnc3c4ccccc4c4ncccc4c3n2)o1` > 10 µM

Quickly give me recorded TGI for `O=[N+]([O-])c1ccccc1NC1c2ccccc2Oc2ccccc21` > 100 µM

Tell me measured TGI for `Cc1cc(Nc2c3ccccc3nc3ccccc23)ccc1NS(C)(=O)=O` please. 12.8 µM

Provide one value: measured TGI of O/N=C1/C(=C/c2ccc(Oc3ccccc3)cc2)CCCC1C(NO)c1ccc(Oc2ccccc2)cc1 (stereo not given) 30.5 µM

# return recorded TGI for entry `O=C(Nc1ccccc1O)c1ccc(CNc2ccnc(C(F)(F)F)c2)cc1` > 100 µM

Each of the following entries comes with a recorded value; kindly state TGI for each.
1. CCN(CC)CCNC(=O)c1ccc(I)cc1
2. COc1ccc(C(=O)C(c2ccc(OC)cc2)C2OC(=O)C(Cl)=C2Cl)cc1 (stereo not given)
3. CC(C)CC(=O)Nc1n[nH]c2c1CN(C(=O)C1CCN(C)CC1)C2(C)C
4. O=C(Nc1cccc(Cc2cccc(NC(=O)c3ccccc3)c2)c1)c1ccccc1
5. OC[C@]1(n2nc3ccccc3n2)OC[C@@H]1c1ccccc1

["> 100 µM", "> 100 µM", "> 10 µM", "> 100 µM", "> 100 µM"]

Hello, I would appreciate it if you could give TGI for each entry below.
1. COc1ccc(-c2nc(C(=O)c3ccccc3)n(CC(=O)c3ccccc3)c2-c2ccc(OC)cc2)cc1
2. OC(COc1ccc(F)cc1)Cn1cnc2c(Cl)ncnc21 (stereo not given)
3. O=C(CCCNc1nc(-c2ccccc2)cs1)c1cccs1
4. O=c1[nH]c2cc([N+](=O)[O-])ccc2nc1/C(=N/Nc1ccccc1)C(O)c1ccc(C(O)/C(=N\Nc2ccccc2)c2cnc3cc([N+](=O)[O-])ccc3n2)cc1 (stereo not given)
5. CCCCCCCCCCCCCCCC[N+](C)(CCO)Cc1cnc[nH]1 (stereo not given)

1: > 100 µM; 2: > 100 µM; 3: > 100 µM; 4: > 100 µM; 5: 12.3 µM

----------
# Tested on: EKVX NSCLC
# test: NCI tumour cell line growth inhibition, 48 h
So I've got a bunch of compounds here, and I need their TGI values.

Examples with their reported TGI follow.
Identify measured TGI obtained with EKVX NSCLC for Cc1nn(C(=O)c2ccncc2)c2c1C(c1ccccc1)SC(N)=N2 (stereo not given) . > 10 µM

Please report the measured TGI for `COC(=O)Nc1nc2ccc(C(=O)c3ccc(N(C)C4COC4)cc3)cc2[nH]1` tested on EKVX NSCLC. > 100 µM

Report the value of TGI obtained on EKVX NSCLC for `Cc1c2c(n(CCc3ccccc3)c1C)N(C)N=C(C#N)S2(=O)=O` . > 100 µM

List reported TGI for each of these compounds:
1. CCN(CC)CCCC(C)Nc1nc(C)cc(Nc2ccc3nc(C)cc(N)c3c2)n1 (stereo not given)
2. CCN(CC)c1ccc2c(c1)Oc1nc(N)c(C#N)c(N)c1C2Sc1ccc(OC)cc1 (stereo not given)
3. Cc1nc([C@H]2CC[C@H]3[C@@H]4CCC5=CC(=O)CC[C@]5(C)[C@H]4CC[C@]23C)cs1

["> 100 µM", "1.97 µM", "> 100 µM"]

Please state TGI for every compound in the list that follows.
1. CC1=C(C(=O)NCc2ccccc2)C(c2ccc([N+](=O)[O-])cc2)C(C(=O)NCc2ccccc2)=C(C)N1
2. Cc1ccc([N+](=O)[O-])cc1S(=O)(=O)Nc1ccc(C2=NNC(c3ccccc3O)C2)cc1 (stereo not given)

> 100 µM
56.9 µM

Batch: TGI for all items listed.
1. C=C1c2[nH]c3ccccc3c2C2C(CC)C1CCN2C (stereo not given)
2. O=C1c2ccccc2NC1(c1ccccc1)c1c(-c2ccccc2)[nH]c2ccccc12 (stereo not given)
3. S=C(Nc1ccc(Cl)cc1)Nc1ccc(-c2nc3ccccc3o2)cc1
4. Clc1ccccc1C1=NN(c2ccccc2)C2c3ccccc3OCC12 (stereo not given)
5. O=C(/C=N/O)Nc1cc(Cl)c(Cl)cc1Cl
6. CC1=C(C(=O)Nc2cc(=O)n(C)c(=O)n2C)C(c2ccc([N+](=O)[O-])cc2)C(C(=O)Nc2cc(=O)n(C)c(=O)n2C)=C(C)N1
7. CN(C)CCNC(=O)c1cccc2c(Nc3ccc(S(N)(=O)=O)cc3)c3ccccc3nc12

1. > 100 µM
2. > 100 µM
3. 64 µM
4. > 100 µM
5. 96.9 µM
6. > 100 µM
7. 10.2 µM

Fill in TGI for each of the 5 compounds listed.
1. COC(=O)c1c(O)c([N+](=O)[O-])cc2c1c1c(n2Cc2ccccc2)C(=O)c2ccccc2C1=O
2. Cc1cc(C)c2c(c1)CC1(Cc3c(C)ccc(C)c3C1=O)C2=O (stereo not given)
3. c1ccc(P(CCP(c2ccccn2)c2ccccn2)c2ccccc2)cc1
4. NC(=O)c1coc(C2OC(CO)C(O)C2O)n1 (stereo not given)
5. CCOP(=O)(C/C=C/Cn1nc(Br)c(=O)[nH]c1=O)OCC

["82.9 µM", "> 100 µM", "9 µM", "> 100 µM", "> 100 µM"]

Data origin: PubChem BioAssay (NCI)
